target-desc: PCAF (Homo sapiens, UniProt Q92831)
Construct: gene KAT2B
Sequence (Q92831 whole entry): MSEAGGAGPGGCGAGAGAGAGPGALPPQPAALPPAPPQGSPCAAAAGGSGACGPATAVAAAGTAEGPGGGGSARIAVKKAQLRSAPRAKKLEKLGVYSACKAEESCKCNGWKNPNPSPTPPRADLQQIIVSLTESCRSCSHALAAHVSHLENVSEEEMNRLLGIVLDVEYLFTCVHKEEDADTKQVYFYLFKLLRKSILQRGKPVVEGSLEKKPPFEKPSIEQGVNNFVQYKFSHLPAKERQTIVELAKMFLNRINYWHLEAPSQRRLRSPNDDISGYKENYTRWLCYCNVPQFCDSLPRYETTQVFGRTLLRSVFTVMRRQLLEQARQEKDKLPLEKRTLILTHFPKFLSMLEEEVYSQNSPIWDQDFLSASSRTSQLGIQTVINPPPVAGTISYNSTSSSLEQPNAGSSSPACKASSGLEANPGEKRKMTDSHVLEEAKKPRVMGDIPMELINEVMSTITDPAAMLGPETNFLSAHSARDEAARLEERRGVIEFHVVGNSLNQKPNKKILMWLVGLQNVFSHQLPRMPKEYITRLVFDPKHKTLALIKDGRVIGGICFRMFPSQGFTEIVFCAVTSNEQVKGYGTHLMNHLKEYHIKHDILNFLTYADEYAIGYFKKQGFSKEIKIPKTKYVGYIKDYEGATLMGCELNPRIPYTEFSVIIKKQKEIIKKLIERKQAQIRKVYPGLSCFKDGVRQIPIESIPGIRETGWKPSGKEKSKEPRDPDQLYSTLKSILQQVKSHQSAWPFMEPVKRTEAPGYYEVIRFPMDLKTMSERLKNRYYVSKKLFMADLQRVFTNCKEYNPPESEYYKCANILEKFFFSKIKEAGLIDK
Design: Intact protein LC/MS covalent labelling, fragments in pools of five, 200 uM each, 4 °C
measurement-context: 24 h, 4 °C, pool of five; 200 µM; covalent
parameter: PCAF

q: Tell me its PCAF on PCAF (Homo sapiens, UniProt Q92831): Cl.O=C(CCl)N1CCN(Cc2ccc3c(c2)CCO3)CC1
a: 0

q: Tell me its PCAF on PCAF (Homo sapiens, UniProt Q92831): C=CC(=O)NC1c2ccccc2CC12CCOCC2 (centres unmarked)
a: 0

q: Tell me its PCAF on PCAF (Homo sapiens, UniProt Q92831): COC(=O)c1cc(Cl)cc(Cl)c1NC(=O)CCl
a: 0

q: Tell me its PCAF on PCAF (Homo sapiens, UniProt Q92831): O=C(CCl)N1CCCC1c1cccs1 (centres unmarked)
a: 0

q: Tell me its PCAF on PCAF (Homo sapiens, UniProt Q92831): Cc1cc(NC(=O)CCl)on1
a: 0

q: Tell me its PCAF on PCAF (Homo sapiens, UniProt Q92831): C=CC(=O)Nc1ccc2c(c1)OCO2
a: 0

q: Tell me its PCAF on PCAF (Homo sapiens, UniProt Q92831): C=CC(=O)N1CCCC(c2nc(-c3cccc(F)c3)no2)C1 (centres unmarked)
a: 0

q: Tell me its PCAF on PCAF (Homo sapiens, UniProt Q92831): Cc1ccc(CN(C)C(=O)CCl)c(C)c1
a: 0

q: Tell me its PCAF on PCAF (Homo sapiens, UniProt Q92831): O=C(CCl)NC1CCN(C(=O)C2CCCCC2)CC1
a: 0

q: Tell me its PCAF on PCAF (Homo sapiens, UniProt Q92831): Cc1ccc(CNC(=O)CCl)cc1F
a: 0

q: Tell me its PCAF on PCAF (Homo sapiens, UniProt Q92831): NS(=O)(=O)c1ccc(Cl)c(NC(=O)CCl)c1
a: 0
